- method.description: Solubility measurement (UV, oversaturated solution stirred 24 h at 37 °C)
- Assay type: physicochemical
- test.context: aqueous buffer, thermodynamic from solid, phosphate buffer at pH 6.8, 37 °C, average of three replicates
observable: solubility at 24 h (µg/mL)

compound="O=c1c(-c2ccc(O)cc2)coc2c([C@@H]3O[C@H](CO)[C@@H](O)[C@H](O)[C@H]3O)c(O)ccc12 [PUE, Puerarin]" measured_value=2490

###

- method.description: Solubility measurement (UV, oversaturated solution stirred 24 h at 37 °C)
- Format: physicochemical
- test.context: deionized water, thermodynamic from solid, Distilled Water (pH 7.0), 37 °C, average of three replicates
observable: solubility at 24 h (µg/mL)

compound="O=c1c(-c2ccc(O)cc2)coc2c([C@@H]3O[C@H](CO)[C@@H](O)[C@H](O)[C@H]3O)c(O)ccc12 [PUE, Puerarin]" measured_value=2530
